# Tested on: 786-0 renal
# ASSAY_METHOD_TEXT: NCI-60 one-dose screen, 48 h (100 = growth as untreated, 0 = no growth, -100 = all killed)
# SETTINGS: 10 µM
This is part of a sample that, as a whole, favours compounds with a hit. Of some 83,000 tested, about 20% had one in any assay.
Each entry gets False if its growth stays under 90%, and True if its growth is 90% or above.

[[record]]
molecule = "CCCCC(CC)COC(C)=O (configuration not stated)"
label_class = "True"

[[record]]
molecule = "COCCOCCCl"
label_class = "True"

[[record]]
molecule = "O=C(c1ccc(O)cc1)c1ccc(O)cc1"
label_class = "True"

[[record]]
molecule = "COc1ccccc1NC(=O)c1cc2cc(Br)ccc2cc1O"
label_class = "False"

[[record]]
molecule = "COC(=O)/C=C1\\Sc2cc(F)ccc2NC1=O"
label_class = "True"

[[record]]
molecule = "COc1cc(/C=N\\Nc2ccccc2)ccc1OC(=O)c1ccccc1"
label_class = "False"

[[record]]
molecule = "CC1(C(=O)O)NC(C(=O)O)Cc2c1[nH]c1ccccc21 (configuration not stated)"
label_class = "True"


====

# Test system: NCI-H460 lung
# ASSAY_METHOD_TEXT: NCI-60 one-dose screen, 48 h (100 = growth as untreated, 0 = no growth, -100 = all killed)
# SETTINGS: 10 µM
The panel holds about 83,000 compounds, 20% with a hit somewhere; the sample as a whole holds those more often.
MEASURED_ENDPOINT: growth (%)

[[record]]
compound = "CC1CCC(C(=O)O)N1 (centres undefined)"
measured_endpoint = "growth"
unit_annotation = "%"
test_result = 115

[[record]]
compound = "CC1C(=O)c2ccccc2CC1C(=O)O (centres undefined)"
measured_endpoint = "growth"
unit_annotation = "%"
test_result = 122

[[record]]
compound = "Cc1c(O)cnc2nn(-c3ccccc3)c(=N)n12"
measured_endpoint = "growth"
unit_annotation = "%"
test_result = 103

[[record]]
compound = "COc1ccc(-c2cc3c(nn2)-c2ccccc2C3=O)cc1"
measured_endpoint = "growth"
unit_annotation = "%"
test_result = 15.1

[[record]]
compound = "O=C(c1ccccc1)C1CCC1"
measured_endpoint = "growth"
unit_annotation = "%"
test_result = 107

[[record]]
compound = "COc1ccc(/C=C/c2cccc[n+]2C)cc1"
measured_endpoint = "growth"
unit_annotation = "%"
test_result = 106

[[record]]
compound = "COc1ccccc1NC(=O)C1=C(C)NC(C)=C(C(=O)Nc2ccccc2OC)C1c1cccc([N+](=O)[O-])c1"
measured_endpoint = "growth"
unit_annotation = "%"
test_result = 67.5

[[record]]
compound = "O=C(CCl)Nc1ccc2c(c1)C(=O)c1ccc(NC(=O)CCl)cc1C2=O"
measured_endpoint = "growth"
unit_annotation = "%"
test_result = -45.9

[[record]]
compound = "C[N+](C)=c1ccc2nc3c(cc(Nc4ccccc4)c4ccccc43)oc-2c1"
measured_endpoint = "growth"
unit_annotation = "%"
test_result = 65


====

Entries annotated with measured growth
# System: HOP-62 NSCLC
# ASSAY_METHOD_TEXT: NCI-60 one-dose screen, 48 h (100 = growth as untreated, 0 = no growth, -100 = all killed)
# SETTINGS: 10 µM
The panel holds about 83,000 compounds, 20% with a hit somewhere; the sample as a whole holds those more often.
MEASURED_ENDPOINT: growth (%)

[[record]]
compound = "O=[N+]([O-])c1cccc2nsnc12"
test_result = 99.5

[[record]]
compound = "CCCCCCCCCCCCCC(=O)Oc1ccc[nH]c1=O"
test_result = 94.1

[[record]]
compound = "CC(C)NC(=O)OCc1c(COC(=O)NC(C)C)c(-c2ccc(Cl)c(Cl)c2)n2c1SCC2"
test_result = 28.7

[[record]]
compound = "COc1ccc(-c2cc3c(nn2)-c2ccccc2C3=O)cc1"
test_result = -14.4

[[record]]
compound = "CO[C@H]1C[C@@H]2CC[C@@H](C)[C@@](O)(O2)C(=O)C(=O)N2CCCC[C@H]2C(=O)O[C@H]([C@H](C)C[C@@H]2CC[C@@H](O)[C@H](OC)C2)CC(=O)[C@H](C)C=C(C)[C@@H](O)[C@@H](OC)C(=O)[C@H](C)C[C@H](C)/C=C/C=C/C=C1C"
test_result = 60.7

[[record]]
compound = "CCNCCCCNCCCCNCCCCNCCCCNCC"
test_result = 113

[[record]]
compound = "CCCNC(=O)c1ccc(S(N)(=O)=O)cc1"
test_result = 82.8

[[record]]
compound = "CCn1c(=O)n(C)c2c(=O)n(C)c(=O)n(C)c21"
test_result = 97.2

[[record]]
compound = "Oc1ccc2c(c1)OCC1(O)Cc3cc(O)c(O)cc3C21 (centres undefined)"
test_result = 82.2

[[record]]
compound = "CC(=O)c1ccc2c(ccc3ccccc32)c1"
test_result = 115

[[record]]
compound = "O=C1Cc2ccccc2C(=O)O1"
test_result = 108

[[record]]
compound = "C=CC[N+](C)(C)C"
test_result = 107

[[record]]
compound = "N#CCCN(CCCN1CCOCC1)CN1C(=O)c2ccccc2C1=O"
test_result = 105

[[record]]
compound = "CC(C)OC(=O)c1cc(NC(=S)OC(C)C)ccc1Cl"
test_result = 91.5

[[record]]
compound = "CC1(C)N=C(N)N=C(N)N1c1cccc(Br)c1"
test_result = 15.4

[[record]]
compound = "Cc1ccc(CCCC(=O)O)c(C)c1"
test_result = 95.7

[[record]]
compound = "O=[N+]([O-])c1ccc(N=Nc2ccc(O)c3ccccc23)cc1"
test_result = 75.2

[[record]]
compound = "O=c1cc(-c2ccccc2)[nH]c(=S)[nH]1"
test_result = 108

[[record]]
compound = "OCC1OC(OC2C(O)C(CO)OC2(CO)OC2OC(CO)C(O)C(O)C2O)C(O)C(O)C1O (centres undefined)"
test_result = 98.6

[[record]]
compound = "C=CCNc1nnc(C)s1"
test_result = 98.8

[[record]]
compound = "Sc1ccc(Nc2c3ccccc3nc3ccccc23)cc1"
test_result = 92.4

[[record]]
compound = "COc1cccc(/C=N/NC(=S)NC2CC3CCC2C3)c1O (centres undefined)"
test_result = 39.6

[[record]]
compound = "CN(C)CCN(Cc1ccccc1)c1ccccc1"
test_result = 107

[[record]]
compound = "S=c1sc2ccccc2n1CN1CCCCC1"
test_result = 89.7


====

Listed molecules paired with reported growth
# System: SF-295 CNS
# ASSAY_METHOD_TEXT: NCI-60 one-dose screen, 48 h (100 = growth as untreated, 0 = no growth, -100 = all killed)
# SETTINGS: 10 µM
About 83,000 compounds went through this panel and 20% of them were active in at least one assay; those are over-represented in the sample as a whole.
MEASURED_ENDPOINT: growth (%)

[[record]]
molecule = "O=C(CC(=O)c1ccccc1O)c1ccccc1"
measurement_target = "SF-295 CNS"
measured_endpoint = "growth"
test_result = 89.5

[[record]]
molecule = "O=[N+]([O-])c1ccc(O)c(S(=O)(=O)O)c1"
measurement_target = "SF-295 CNS"
measured_endpoint = "growth"
test_result = 102

[[record]]
molecule = "c1cc[n+](C2c3ccccc3C([n+]3ccccc3)c3ccccc32)cc1 (stereo unspecified)"
measurement_target = "SF-295 CNS"
measured_endpoint = "growth"
test_result = 52

[[record]]
molecule = "CCC(C#N)(CC)c1ccccc1"
measurement_target = "SF-295 CNS"
measured_endpoint = "growth"
test_result = 113

[[record]]
molecule = "CC1(C)S(=O)(=O)OCCOS1(=O)=O"
measurement_target = "SF-295 CNS"
measured_endpoint = "growth"
test_result = 97.7

[[record]]
molecule = "CCOC(=O)/C(=C/c1ccc(OC)cc1)N(CC)CC"
measurement_target = "SF-295 CNS"
measured_endpoint = "growth"
test_result = 101

[[record]]
molecule = "COc1cc(C(=O)N/N=C/c2cccc([N+](=O)[O-])c2)cc(OC)c1OC"
measurement_target = "SF-295 CNS"
measured_endpoint = "growth"
test_result = 48.2

[[record]]
molecule = "O=C(O)c1ccc(S(=O)(=O)O)cc1"
measurement_target = "SF-295 CNS"
measured_endpoint = "growth"
test_result = 107

[[record]]
molecule = "Nc1ccccc1SC(CC(=O)c1ccccc1)c1c(Cl)cccc1Cl (stereo unspecified)"
measurement_target = "SF-295 CNS"
measured_endpoint = "growth"
test_result = 94.2

[[record]]
molecule = "CN(C)c1ccc2nc3ccc(=N)cc-3sc2c1"
measurement_target = "SF-295 CNS"
measured_endpoint = "growth"
test_result = 86.1

[[record]]
molecule = "Cc1ccccc1N=C(c1ccccc1)C1C(=O)c2ccccc2C1=O"
measurement_target = "SF-295 CNS"
measured_endpoint = "growth"
test_result = 93.6

[[record]]
molecule = "COC(=O)c1cccnc1"
measurement_target = "SF-295 CNS"
measured_endpoint = "growth"
test_result = 110

[[record]]
molecule = "CCN(CC)c1ccc2nc3ccc(=[N+](CC)CC)cc-3oc2c1"
measurement_target = "SF-295 CNS"
measured_endpoint = "growth"
test_result = 1.09

[[record]]
molecule = "O=C(/C=C/C(=O)c1ccccc1)c1ccccc1"
measurement_target = "SF-295 CNS"
measured_endpoint = "growth"
test_result = 99

[[record]]
molecule = "CC1(C)Nc2cccc3c(N=Nc4ccc(N=Nc5ccccc5)c5ccccc45)ccc(c23)N1"
measurement_target = "SF-295 CNS"
measured_endpoint = "growth"
test_result = 100

[[record]]
molecule = "N#CCc1ccc([N+](=O)[O-])cc1"
measurement_target = "SF-295 CNS"
measured_endpoint = "growth"
test_result = 95.3

[[record]]
molecule = "COCCOC(=O)c1ccc(C(C)C)cc1"
measurement_target = "SF-295 CNS"
measured_endpoint = "growth"
test_result = 104

[[record]]
molecule = "CC1(C)OC(=O)C(c2ccsc2)C(=O)O1"
measurement_target = "SF-295 CNS"
measured_endpoint = "growth"
test_result = 108

[[record]]
molecule = "CC(CC(=O)c1ccccc1)c1ccccc1 (stereo unspecified)"
measurement_target = "SF-295 CNS"
measured_endpoint = "growth"
test_result = 95.8

[[record]]
molecule = "O=c1cc(-c2ccccc2)nc2cc(-c3ccco3)[nH]n12"
measurement_target = "SF-295 CNS"
measured_endpoint = "growth"
test_result = 110

[[record]]
molecule = "CCN=c1cc2sc3cc(NCC)c(C)cc3nc-2cc1C"
measurement_target = "SF-295 CNS"
measured_endpoint = "growth"
test_result = -72.4

[[record]]
molecule = "CCC/C=C(\\C)C(C)(C#N)C(=O)OCC (stereo unspecified)"
measurement_target = "SF-295 CNS"
measured_endpoint = "growth"
test_result = 112

[[record]]
molecule = "Cc1cc(=O)cc(C)n1-c1ccccc1"
measurement_target = "SF-295 CNS"
measured_endpoint = "growth"
test_result = 96.3

[[record]]
molecule = "CCOC(=O)C1=C(Nc2ccc(Br)cc2)C(=O)N(CC)C1"
measurement_target = "SF-295 CNS"
measured_endpoint = "growth"
test_result = 87

[[record]]
molecule = "C[N+](C)=c1ccc2nc3c(cc(Nc4ccccc4)c4ccccc43)oc-2c1"
measurement_target = "SF-295 CNS"
measured_endpoint = "growth"
test_result = 59.5

[[record]]
molecule = "O=S(=O)(O)c1ccc(O)c2ccccc12"
measurement_target = "SF-295 CNS"
measured_endpoint = "growth"
test_result = 119

